Protocol Text: Inhibition of Trichoderma chitinase T1 using [4MU-(GlcNAc)3] as substrate
pIC50: −log10 of the molar value.
Measured Quantity: pIC50

// below: answered compounds
{"columns": ["Compound", "pIC50"],
 "data": [
  ["CNC1=N[C@@H]2[C@@H](O)[C@H](O[C@@H]3O[C@H](CO)[C@@H](O[C@@H]4O[C@H](CO)[C@@H](O)[C@@H](O)[C@H]4N)[C@@H](O)[C@H]3NC(C)=O)[C@@H](CO)[C@@H]2O1", 4.08],
  ["CC(=O)N[C@H]1[C@H](O[C@H]2[C@@H](O)[C@@H](NC(=O)CCSSCCNC(=O)CCCCC3SCC4NC(=O)NC43)[C@H](O[C@H]3[C@H](O)[C@H]4N=C(N(C)C)O[C@H]4[C@@H]3CO)O[C@@H]2CO)O[C@H](CO)[C@@H](O)[C@H]1O (some centres undefined)", 4.30],
  ["CNC1=N[C@@H]2[C@@H](O)[C@H](O[C@@H]3O[C@H](CO)[C@@H](O[C@@H]4O[C@H](CO)[C@@H](O)[C@@H](O)[C@H]4NC(C)=O)[C@@H](O)[C@H]3NC(=O)CCSSCCNC(=O)C(CCCCNC(=O)CCCCC3SCC4NC(=O)NC43)NC(=O)c3ccc(N=[NH+][NH-])cc3)[C@@H](CO)[C@@H]2O1 (some centres undefined)", 3.81],
  ["CC(=O)N[C@H]1[C@H](O[C@H]2[C@H](O)[C@H]3N=C(N(C)C)O[C@H]3[C@@H]2CO)O[C@H](CO)[C@@H](O[C@@H]2O[C@H](CO)[C@@H](O)[C@@H](O)[C@H]2NC(=O)CCSSCCNC(=O)C(CCCCNC(=O)CCCCC2SCC3NC(=O)NC32)NC(=O)c2ccc(N=[NH+][NH-])cc2)[C@H]1O (some centres undefined)", 4.97],
  ["CNC1=N[C@@H]2[C@@H](O)[C@H](O[C@@H]3O[C@H](CO)[C@@H](O[C@@H]4O[C@H](CO)[C@@H](O)[C@@H](O)[C@H]4NC(C)=O)[C@@H](O)[C@H]3NC(=O)CCSSCCNC(=O)CCCCC3SCC4NC(=O)NC43)[C@@H](CO)[C@@H]2O1 (some centres undefined)", 4.30],
  ["CNC1=N[C@@H]2[C@@H](O)[C@H](O[C@@H]3O[C@H](CO)[C@@H](O[C@@H]4O[C@H](CO)[C@@H](O)[C@@H](O)[C@H]4NC(=O)CCSSCCNC(=O)C(CCCCNC(=O)CCCCC4SCC5NC(=O)NC54)NC(=O)c4ccc(N=[NH+][NH-])cc4)[C@@H](O)[C@H]3NC(C)=O)[C@@H](CO)[C@@H]2O1 (some centres undefined)", 5.11],
  ["CNC1=N[C@@H]2[C@@H](O)[C@H](O[C@@H]3O[C@H](CO)[C@@H](O[C@@H]4O[C@H](CO)[C@@H](O)[C@@H](O)[C@H]4NC(=O)CCSSCCNC(=O)CCCCC4SCC5NC(=O)NC54)[C@@H](O)[C@H]3NC(C)=O)[C@@H](CO)[C@@H]2O1 (some centres undefined)", 5.10],
  ["CC(=O)N[C@H]1[C@H](O[C@H]2[C@H](O)[C@H]3N=C(N(C)C)O[C@H]3[C@@H]2CO)O[C@H](CO)[C@@H](O[C@@H]2O[C@H](CO)[C@@H](O)[C@@H](O)[C@H]2NC(=O)CCSSCCNC(=O)CCCCC2SCC3NC(=O)NC32)[C@H]1O (some centres undefined)", 5.44],
  ["CC(=O)N[C@H]1[C@H](O[C@H]2[C@@H](O)[C@@H](NC(=O)CCSSCCNC(=O)C(CCCCNC(=O)CCCCC3SCC4NC(=O)NC43)NC(=O)c3ccc(N=[NH+][NH-])cc3)[C@H](O[C@H]3[C@H](O)[C@H]4N=C(N(C)C)O[C@H]4[C@@H]3CO)O[C@@H]2CO)O[C@H](CO)[C@@H](O)[C@H]1O (some centres undefined)", 3.90]
]}

A. CC(=O)N[C@H]1[C@H](O[C@H]2[C@@H](O)[C@@H](NC(C)=O)[C@H](O[C@H]3[C@H](O)[C@H]4N=C(N(C)C)O[C@H]4[C@@H]3CO)O[C@@H]2CO)O[C@H](CO)[C@@H](O)[C@H]1O
B. CNC1=N[C@@H]2[C@@H](O)[C@H](O[C@@H]3O[C@H](CO)[C@@H](O[C@@H]4O[C@H](CO)[C@@H](O)[C@@H](O)[C@H]4NC(C)=O)[C@@H](O)[C@H]3NC(C)=O)[C@@H](CO)[C@@H]2O1
C. CC(=O)N[C@H]1[C@H](O[C@H]2[C@@H](O)[C@@H](N)[C@H](O[C@H]3[C@H](O)[C@H]4N=C(N(C)C)O[C@H]4[C@@H]3CO)O[C@@H]2CO)O[C@H](CO)[C@@H](O)[C@H]1O
D. CC(=O)N[C@H]1[C@H](O[C@H]2[C@H](O)[C@H]3N=C(N(C)C)O[C@H]3[C@@H]2CO)O[C@H](CO)[C@@H](O[C@@H]2O[C@H](CO)[C@@H](O)[C@@H](O)[C@H]2N)[C@H]1O
E. CNC1=N[C@@H]2[C@@H](O)[C@H](O[C@@H]3O[C@H](CO)[C@@H](O[C@@H]4O[C@H](CO)[C@@H](O)[C@@H](O)[C@H]4NC(C)=O)[C@@H](O)[C@H]3N)[C@@H](CO)[C@@H]2O1
Parameters: sort_field (pIC50), sort_dir (desc). List the labels in the requested order.
A, B, D, C, E
(A: 5.27, B: 4.99, D: 4.46, C: 4.16, E: 3.51)
